system: mice; test: Simple acute toxicity test by intravenous injection in mice; type: in vivo, Male ddy mice; settings: 500 mg/kg i.v., 6 days, 3 mice
valueType: Number of death with the elapse of time

{"compound": "CC(=O)N[C@H]1[C@H]([C@H](O)[C@H](O)CO)OC(O)(C(=O)[O-])C[C@@H]1O.[K+] (stereo partly shown) [Potassium N-acetylneuraminate]", "resultNumber": 0}
{"compound": "CC(=O)N[C@H]1[C@H]([C@H](O)[C@H](O)CO)OC(O)(C(=O)O)C[C@@H]1O (stereo partly shown) [Magnesium N-acetylneuraminate]", "resultNumber": 0}
{"compound": "CC(=O)N[C@H]1[C@H]([C@H](O)[C@H](O)CO)OC(O)(C(=O)[O-])C[C@@H]1O.[Li+] (stereo partly shown) [Lithium N-acetylneuraminate]", "resultNumber": 0}
{"compound": "CC(=O)N[C@H]1[C@H]([C@H](O)[C@H](O)CO)OC(O)(C(=O)O)C[C@@H]1O (stereo partly shown) [Barium N-acetylneuraminate]", "resultNumber": 0}

----------
tested on: mice; test: Simple acute toxicity test by intravenous injection in mice; format: in vivo, Male ddy mice; details: 500 mg/kg i.v., 2 days, 3 mice
Measured Number of death with the elapse of time of individual entries
valueType: Number of death with the elapse of time

{"compound": "CC(=O)N[C@H]1[C@H]([C@H](O)[C@H](O)CO)OC(O)(C(=O)[O-])C[C@@H]1O.[Li+] (stereo partly shown) [Lithium N-acetylneuraminate]", "subjectOfTest": "mice", "resultNumber": 0}
{"compound": "CC(=O)N[C@H]1[C@H]([C@H](O)[C@H](O)CO)OC(O)(C(=O)O)C[C@@H]1O (stereo partly shown) [Magnesium N-acetylneuraminate]", "subjectOfTest": "mice", "resultNumber": 0}
{"compound": "CC(=O)N[C@H]1[C@H]([C@H](O)[C@H](O)CO)OC(O)(C(=O)[O-])C[C@@H]1O.[K+] (stereo partly shown) [Potassium N-acetylneuraminate]", "subjectOfTest": "mice", "resultNumber": 0}
{"compound": "CC(=O)N[C@H]1[C@H]([C@H](O)[C@H](O)CO)OC(O)(C(=O)O)C[C@@H]1O (stereo partly shown) [Barium N-acetylneuraminate]", "subjectOfTest": "mice", "resultNumber": 0}

----------
System: mice
Assay: Simple acute toxicity test by intravenous injection in mice
Type: in vivo, Male ddy mice
Settings: 500 mg/kg i.v., 3 mice
Method: Simple acute toxicity test: Simple acute toxicity tests of the materials were conducted by intraveous injections for the mice as follows: Lithium, potassium, barium and magnesium N-acetylneuraminates (products of MECT Corporation) were used. Weight of the animal in the initial stage of the test: 17.7 to 21.1 g Number of mice for each level: 3 (3) Room temperature: 23±1° C., humidity: 55±7% (4) Route of administration: intravenous injection The material was dissolved in the physiological saline. […]
Measured Final death rate of individual entries

{"compound": "CC(=O)N[C@H]1[C@H]([C@H](O)[C@H](O)CO)OC(O)(C(=O)O)C[C@@H]1O (stereo partly shown) [Barium N-acetylneuraminate]", "subjectOfTest": "mice", "Final death rate": "3/3"}
{"compound": "CC(=O)N[C@H]1[C@H]([C@H](O)[C@H](O)CO)OC(O)(C(=O)[O-])C[C@@H]1O.[K+] (stereo partly shown) [Potassium N-acetylneuraminate]", "subjectOfTest": "mice", "Final death rate": "0/3"}
{"compound": "CC(=O)N[C@H]1[C@H]([C@H](O)[C@H](O)CO)OC(O)(C(=O)[O-])C[C@@H]1O.[Li+] (stereo partly shown) [Lithium N-acetylneuraminate]", "subjectOfTest": "mice", "Final death rate": "0/3"}
{"compound": "CC(=O)N[C@H]1[C@H]([C@H](O)[C@H](O)CO)OC(O)(C(=O)O)C[C@@H]1O (stereo partly shown) [Magnesium N-acetylneuraminate]", "subjectOfTest": "mice", "Final death rate": "0/3"}
